All values here come from ChEMBL document CHEMBL2218924.

TARGET_OF_ASSAY: Mitogen-activated protein kinase 1 (Homo sapiens)
CONDITIONS: at 10 µM
Description: Millipore: Percentage of residual kinase activity of MAPK1 at 10uM relative to control. Control inhibitor: ERK Inhibitor II at 30.0uM. Buffer: 25 mM Tris pH 7.5, 0.02 mM EGTA
READOUT_KIND: residual activity (%)
One number for each entry, in %.

N#C/C(=C(\N)Sc1ccc(N)cc1)c1ccccc1C(F)(F)F    90
O=C1NC(=O)/C(=C/c2ccc3c(c2)OC(F)(F)O3)S1    107
O=Nc1c(-c2c(O)[nH]c3ccccc23)[nH]c2ccccc12    103
Cc1nc2cc3nc(-c4cccs4)cnc3cc2n1C    103
CCN(CC)CCCCN1c2ccccc2Oc2ccc(Cl)cc21    104
CC[n+]1c(/C=C/N(C)c2ccccc2)n(-c2ccccc2)c2ccc(-c3nc4ccccc4s3)cc21    100
Oc1n[nH]c2nnc(-c3c(-c4ccccc4)nn4ccccc34)cc12    105
CO[C@H]1C[C@@H]2CC[C@@H](C)[C@@](O)(O2)C(=O)C(=O)N2CCCC[C@H]2C(=O)O[C@H]([C@H](C)C[C@@H]2CC[C@@H](O)[C@H](OC)C2)CC(=O)[C@H](C)/C=C(\C)[C@@H](O)[C@@H](OC)C(=O)[C@H](C)C[C@H](C)/C=C/C=C/C=C/1C    101

Would you mind giving residual activity for every compound in the list below?
1. CN(C)c1ccc(/C=C2\C(=O)Nc3ccccc32)cc1
2. O=C1c2ccccc2-[n+]2ccc3c([nH]c4ccccc43)c21
3. Oc1ccc(-c2nc(-c3ccc(F)cc3)c(-c3ccncc3)[nH]2)cc1
4. O=C(O)c1ccc2c3c1cccc3c(=O)n1c3ccccc3nc21
5. O=C1NC(=O)c2c1c1c3ccccc3[nH]c1c1[nH]c3cc(Br)ccc3c21
6. Cc1ccc(NC2=CC(=O)c3sc(C)nc3C2=O)cc1

Result string:
1: 100; 2: 108; 3: 98; 4: 96; 5: 99; 6: 106

Would you mind giving residual activity for every compound in the list below?
1. CO[C@H]1[C@@H](OC)C[C@H](C)[C@@H](OC)C2=CC(=O)C=C(NC(=O)/C(C)=C/C=C/[C@H](OC)[C@@H](OC(N)=O)/C(C)=C/[C@@H]1C)C2=O
2. COc1cc2ncnc(Nc3ccc(Oc4ccccc4)cc3)c2cc1OC
3. O=c1c2ccccc2[nH]c(=S)n1CCN1CCC(=C(c2ccc(F)cc2)c2ccc(F)cc2)CC1
4. COc1cc2ncnc(Nc3ccc(NC(=O)c4ccccc4)cc3)c2cc1OC
5. Cn1cc(/C=C2\C(=O)Nc3ccc(S(N)(=O)=O)cc32)c2ccccc21
6. COc1cc2ncnc(Nc3ccc(O)c(Br)c3)c2cc1OC
7. COc1ccc(CNc2nc(N(CCO)CCO)nc3c2ncn3C(C)C)cc1
8. NC(=O)c1ccc2[nH]c(-c3ccc(Oc4ccc(Cl)cc4)cc3)nc2c1

Result string:
97
94
80
103
103
75
87
99

Would you mind giving residual activity for every compound in the list below?
1. CCN(CC)C(=O)c1ccc(Nc2nc(OCC3CCCCC3)c3nc[nH]c3n2)cc1
2. O=C(Nc1cccc(Nc2nccc(Nc3cccc(C(F)(F)F)c3)n2)c1)C1CC1

Result string:
[42, 84]

Would you mind giving residual activity for every compound in the list below?
1. Nc1nc(Nc2ccc(S(N)(=O)=O)cc2)nn1C(=S)Nc1c(F)cccc1F
2. O=C1Nc2ccc(Br)cc2/C1=C\c1cc2c([nH]1)CCCC2
3. COc1ccc(S(=O)(=O)N(CCO)c2ccccc2CN(C)C/C=C/c2ccc(Cl)cc2)cc1
4. Cn1cnc2cc3c(Nc4cccc(Br)c4)ncnc3cc21
5. CCOc1cc2ncnc(Nc3cccc(Br)c3)c2cc1OCC

Result string:
[3, 106, 103, 95, 77]

Would you mind giving residual activity for every compound in the list below?
1. N#CCCc1ccc2c(c1)-c1[nH]c3ccc([N+](=O)[O-])cc3c1CC(=O)N2
2. COc1ccc(OC)c2c(=S)c3ccccc3[nH]c12
3. Nc1ccc2ncnc(NCCc3ccc(Oc4ccccc4)cc3)c2c1
4. CC(C)n1cnc2c(NCc3ccccc3)nc(NCCCO)nc21
5. c1ccc(-c2n[nH]cc2-c2ccnc3ccccc23)nc1
6. O=C1Nc2cc(Br)ccc2/C1=C1/Nc2ccccc2/C1=N\O

Result string:
51
101
86
90
109
106

Would you mind giving residual activity for every compound in the list below?
1. Oc1ccc(Nc2nc(-c3ccc(Cl)cc3)cs2)cc1
2. O=C1NC(=O)/C(=C\c2ccc3nccnc3c2)S1

Result string:
1. 107
2. 96

Query string: What value of residual activity has been reported for the following compound? Cc1ccc(S(=O)(=O)/C=C/C#N)cc1
Result string: 110
